Provenance of the data: patent US8461209B2

- TARGET_OR_TEST_SYSTEM: human recombinant AT2 receptor (Homo sapiens, UniProt P50052)
- Construct: purchased PerkinElmer 6110538; host or cells: HeLa cells
- Sequence (P50052 whole entry): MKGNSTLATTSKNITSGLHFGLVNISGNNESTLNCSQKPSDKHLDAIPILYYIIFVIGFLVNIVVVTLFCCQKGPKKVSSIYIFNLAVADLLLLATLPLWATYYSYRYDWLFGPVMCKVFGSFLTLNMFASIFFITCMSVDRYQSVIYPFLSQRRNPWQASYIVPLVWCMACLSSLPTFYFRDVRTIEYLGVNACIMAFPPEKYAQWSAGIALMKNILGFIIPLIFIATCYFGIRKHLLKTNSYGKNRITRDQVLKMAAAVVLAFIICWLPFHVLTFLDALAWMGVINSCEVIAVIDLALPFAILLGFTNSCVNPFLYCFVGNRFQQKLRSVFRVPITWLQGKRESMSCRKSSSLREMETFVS
- PROCEDURE_SUMMARY: Affinity for AT2 receptor (receptor binding assay)
- CONDITION_LABEL: membrane fraction from HeLa cells expressing human recombinant AT2 receptor; 125I-[Sar1, Ile8]-Ang II 0.1 nmol/L
pKi: −log10 of the molar value.
MEASUREMENT_TYPE: pKi

{"columns": ["COMPOUND", "MEASUREMENT_TYPE", "MEASURED_RESULT"],
 "data": [
  ["CC(C)CC(C(=O)NS(=O)(=O)CCc1ccccc1)C(=O)N(c1ccc(F)cc1)C(C)C (stereo not shown)", "pKi", 8.28],
  ["CC(C)N(C(=O)C(CC1CC1)C(=O)NS(=O)(=O)/C=C/c1ccccc1)c1ccc(F)cc1 (single isomer, unassigned)", "pKi", 8.21],
  ["CC(C)N(C(=O)C(Cc1ccc(F)cc1)C(=O)NS(=O)(=O)/C=C/c1ccccc1)c1cccnc1 (stereo not shown)", "pKi", 8.19],
  ["CCN(CC)C(=O)C(Cc1ccc(NC(=O)c2c(F)cccc2F)cc1)C(=O)NS(=O)(=O)c1ccc2ccccc2c1 (stereo not shown)", "pKi", 8.10]
]}

---

- TARGET_OR_TEST_SYSTEM: human recombinant AT2 receptor (Homo sapiens)
- PROCEDURE_SUMMARY: Affinity for AT2 receptor (receptor binding assay)
- CONDITION_LABEL: membrane fraction from HeLa cells expressing human recombinant AT2 receptor; 125I-[Sar1, Ile8]-Ang II 0.1 nmol/L
- Description: […]
pKi: −log10 of the molar value.
MEASUREMENT_TYPE: pKi

// below: answered compounds
{"columns": ["COMPOUND", "pKi"],
 "data": [
  ["CCN(CC)C(=O)[C@H](Cc1ccc(NC(=O)c2ccc(F)cc2N)cc1)C(=O)NS(=O)(=O)c1ccc2ccccc2c1 [Example 107]", 8.80],
  ["CCN(CC)C(=O)C(Cc1ccc(NC(=O)Oc2ccccc2)cc1)C(=O)NS(=O)(=O)c1ccc2ccccc2c1 (stereo not shown) [Example 87]", 7.64]
]}

[P] CCN(CC)C(=O)[C@H](Cc1ccc(NC(=O)c2c(N)cccc2F)cc1)C(=O)NS(=O)(=O)c1ccc2ccccc2c1 [Example 100]
[Q] CC(C)N(C(=O)C(CC1CC1)C(=O)NS(=O)(=O)c1ccc2ccccc2c1)c1ccc(F)cc1 (stereo not shown) [Example 530]
[Q] Of P versus Q , which is the one with smaller reported pKi? # answer = label of selected item
[A] Q
(Q: 7.89, P: 8.74)

---

- TARGET_OR_TEST_SYSTEM: human recombinant AT2 receptor (Homo sapiens)
- PROCEDURE_SUMMARY: Affinity for AT2 receptor (receptor binding assay)
- CONDITION_LABEL: membrane fraction from HeLa cells expressing human recombinant AT2 receptor; 125I-[Sar1, Ile8]-Ang II 0.1 nmol/L
- From the text: […]
MEASUREMENT_TYPE: Ki (nM)

// below: answered molecules
{"columns": ["MOLECULE", "Ki [nM]"],
 "data": [
  ["CCN(CC)C(=O)[C@H](Cc1ccc(NC(=O)c2ccc(Cl)cc2N)cc1)C(=O)NS(=O)(=O)c1ccc2ccccc2c1 [Example 103]", 3.2],
  ["C=CCC(C(=O)NS(=O)(=O)/C=C/c1ccccc1)C(=O)N(c1ccc(F)cc1)C(C)C (stereo not shown) [Example 481]", 9]
]}

[I] CCN(C(=O)C(Cc1cnn(Cc2ccccc2)c1)C(=O)NS(=O)(=O)/C=C/c1ccccc1)c1ccccc1 (stereo not shown) [Example 371]
[II] CC(C)CC(C(=O)NS(=O)(=O)c1ccc2ccccc2c1)C(=O)N(c1ccc(F)cc1)C(C)C (stereo not shown) [Example 495]
[Q] Kindly identify which of I and II has the larger recorded Ki value. # answer = label of selected item
[A] I
